System: MOLT-4
Assay: Cytostatic activity against Homo sapiens (human) Molt4/C8 cells after 72 hr by coulter counter analysis
Type: functional, cell-based
Conditions: MOLT-4, 72 h
Provide the reported IC50 of each item.
The answer is to be given in µg/mL; state only the numeric part.

# value lookup — system MOLT-4, readout IC50, item Clc1ccccc1/C=N/c1ccc(Br)cc1
1.5

# value lookup — system MOLT-4, readout IC50, item N[C@@H](Cc1ccc(N(CCCl)CCCl)cc1)C(=O)O [MELPHALAN]
3.2

# value lookup — system MOLT-4, readout IC50, item COC(=O)/C(=C/c1ccc(OC)cc1)c1ccccc1
71

# value lookup — system MOLT-4, readout IC50, item O=C(O)/C(=C/c1ccccc1F)c1ccccc1
89

# value lookup — system MOLT-4, readout IC50, item CCNC(=O)/C(=C/c1ccccc1)c1ccccc1
112

# value lookup — system MOLT-4, readout IC50, item Fc1ccc(/N=C/c2cccs2)cc1Cl
16

* * *

Test system: MOLT-4
Test: Cytostatic activity against Homo sapiens (human) Molt4/C8 cells after 72 hr by coulter counter analysis
Type: functional, cell-based
Settings: MOLT-4, 72 h
Provide the reported log10 IC50 of each item.
The common logarithm of IC50 in µg/mL is what is listed.

What does the record list as log10 IC50 for CNC(=O)/C(=C/c1ccccc1Cl)c1ccccc1 ?
1.89

What does the record list as log10 IC50 for Fc1ccc(/N=C/c2ccccc2Cl)cc1 ?
-0.11

What does the record list as log10 IC50 for COC(=O)/C(=C/c1ccccc1Cl)c1ccccc1 ?
1.20

What does the record list as log10 IC50 for CNC(=O)/C(=C/c1ccccc1F)c1ccccc1 ?
1.86

What does the record list as log10 IC50 for Cc1ccc(/C=C/c2ccccc2F)cc1 ?
1.48

What does the record list as log10 IC50 for CCN(CC)C(=O)/C(=C/c1ccccc1Cl)c1ccccc1 ?
1.15

What does the record list as log10 IC50 for Fc1ccc(/N=C/c2ccccc2Cl)cc1Cl ?
0.59

What does the record list as log10 IC50 for O=C(O)/C(=C/c1ccccc1Cl)c1ccccc1 ?
1.57

What does the record list as log10 IC50 for CNC(=O)/C(=C/c1ccc(OC)cc1)c1ccccc1 ?
2.22

What does the record list as log10 IC50 for Fc1ccc(/C=C/c2ccccc2F)cc1 ?
1.79

What does the record list as log10 IC50 for CCNC(=O)/C(=C/c1ccc(OC)cc1)c1ccccc1 ?
2.18

* * *

Tested on: L1210
Assay: Cytostatic activity against Mus musculus (mouse) L1210 cells after 48 hr by coulter counter analysis
Format: functional, cell-based
Conditions: L1210, 48 h
Provide the reported IC50 of each item.

# value lookup — system L1210, readout IC50, item CCN(CC)C(=O)/C(=C/c1ccccc1Cl)c1ccccc1
24 µg/mL

# value lookup — system L1210, readout IC50, item N[C@@H](Cc1ccc(N(CCCl)CCCl)cc1)C(=O)O
2.1 µg/mL

# value lookup — system L1210, readout IC50, item Clc1ccccc1/C=N/c1ccc(Br)cc1
2.1 µg/mL

# value lookup — system L1210, readout IC50, item O=C(O)/C(=C/c1ccccc1F)c1ccccc1
> 200 µg/mL

# value lookup — system L1210, readout IC50, item Fc1ccc(/N=C/c2ccccc2Cl)cc1
6 µg/mL

# value lookup — system L1210, readout IC50, item CCNC(=O)/C(=C/c1ccc(OC)cc1)c1ccccc1
148 µg/mL
